Attribute: TGI
# Test system: HOP-92 NSCLC
# EXPERIMENT NOTES: NCI tumour cell line growth inhibition, 48 h
Output spec: scalar in µM, unitless text.

Record excerpt, results attached:
COc1cc2c3c(n(C)c(=O)c2cc1OC)-c1cc2c(cc1/C3=C\CCCN1C(=O)c3ccccc3C1=O)OCO2
13.4
CCOc1cccc(/C=N/NC(=O)c2ccccc2Nc2ccnc(C(F)(F)F)c2)c1O
19.7
COc1cccc(/C=N/NC(=O)c2ccccc2Nc2ccnc(C(F)(F)F)c2)c1O
21.5
CN(C)CCNc1cc(-c2ccccc2)nc2ccccc12
21.3
O=C(CCCCCCCCC(=O)NN1C(=O)/C(=C\c2ccc(O)c(O)c2)SC1c1ccc(Cl)cc1)NN1C(=O)/C(=C\c2ccc(O)c(O)c2)SC1c1ccc(Cl)cc1 (stereo not given)
43.8

Query: Give recorded TGI with HOP-92 NSCLC for the following compound: N#Cc1ccc(C#Cc2ccccc2C#CCCCCO)cc1
Response: 34.6

Query: Give recorded TGI with HOP-92 NSCLC for the following compound: CC(CN1c2ccccc2Sc2ccccc21)N(C)C (stereo not given)
Response: 35.4

Query: Give recorded TGI with HOP-92 NSCLC for the following compound: O=C1/C(=C/c2ccc(Cl)cc2Cl)N=C(c2ccccc2)N1Cc1ccco1
Response: 47.4
